Source listed as PubChem BioAssay AID1996.

# Condition Set: buffer; pH 7.4; 200.0 µM
Measured solubility kinetic accompanies every entry in the list below.
Unit µg/mL implied. Number only.

Answered cases to consult:
# solubility kinetic (molecule: c1ccc(OCCCCN2CCCCC2)cc1 ) is 29.6

# solubility kinetic (molecule: CCOc1ccc(NC(=O)CCC(=O)Oc2ccc(C)cc2)cc1 ) is 19.5

Further cases:
# solubility kinetic (molecule: CCCn1c(Nc2cccc(OC)c2)nc2ccccc21 ) is 2.1

# solubility kinetic (molecule: O=C1C2CCCCN2C(=O)N1CCCCN1CCN(c2cccc(Cl)c2)CC1 (configuration not stated) ) is 54.2

# solubility kinetic (molecule: Cc1ccc(C)c(OCCC(=O)OCC(=O)NCc2ccc(F)cc2)c1 ) is 3.7

# solubility kinetic (molecule: NCCNc1ccc([N+](=O)[O-])c2cccnc12 ) is 28.7

# solubility kinetic (molecule: Cc1ccc(C(=O)Nc2ccc3ccccc3n2)cc1 ) is 2.3

# solubility kinetic (molecule: CCOc1ccc(Br)cc1S(=O)(=O)Nc1cccnc1 ) is 1.4

# solubility kinetic (molecule: CCOc1ccccc1NC(=S)NCCc1ccc(F)cc1 ) is 25.4
